# Test system: KBV
# assay-summary: Reversal of Pgp-mediated paclitaxel resistance in human KBV cells assessed as cell viability at 5 uM in presence of paclitaxel incubated for 72 hrs by MTT assay
# Assay type: cell-based
endpoint-name: Activity (%)
Answers are plain numbers, in %.

structure-as-smiles: CC(C)[C@H](NC(=O)OC(C)(C)C)C(=O)O[C@H]1CC[C@]2(C)[C@H]3C[C@@H](O)[C@@H]4[C@@H]([C@]5(C)CC[C@@H](C(C)(C)O)O5)CC[C@@]4(C)[C@]3(C)CC[C@H]2C1(C)C
test-system: KBV
scale-unit: %
Activity: 106

Lab entry: KBV assay, molecule CC(C)(C)OC(=O)N[C@@H](Cc1ccc(OC(C)(C)C)cc1)C(=O)O[C@H]1CC[C@]2(C)[C@H]3C[C@@H](O)[C@@H]4[C@@H]([C@]5(C)CC[C@H](C(C)(C)O)O5)CC[C@@]4(C)[C@]3(C)CC[C@H]2C1(C)C , Activity = 107

###

For each entry below, report its viability at 72 h, 10 µM value.
# assay-summary: Cytotoxicity against human KBV cells assessed as cell viability at 10 uM incubated for 72 hrs by MTT assay
# Format: cell-based
# test-conditions: read-out: Activity
Answers are plain numbers, in %.

Sample answers from the record:
structure-as-smiles: C[C@@H](OCc1ccccc1)[C@H](N)C(=O)O[C@H]1CC[C@]2(C)[C@H]3C[C@@H](O)[C@@H]4[C@@H]([C@]5(C)CC[C@@H](C(C)(C)O)O5)CC[C@@]4(C)[C@]3(C)CC[C@H]2C1(C)C
viability at 72 h, 10 µM / %: 102

structure-as-smiles: CC(C)[C@H](NC(=O)OC(C)(C)C)C(=O)O[C@H]1CC[C@]2(C)[C@H]3C[C@@H](O)[C@@H]4[C@@H]([C@]5(C)CC[C@@H](C(C)(C)O)O5)CC[C@@]4(C)[C@]3(C)CC[C@H]2C1(C)C
viability at 72 h, 10 µM / %: 128

structure-as-smiles: CC(C)(O)[C@H]1CC[C@@](C)([C@H]2CC[C@]3(C)[C@@H]2[C@H](O)C[C@@H]2[C@@]4(C)CC[C@H](OC(=O)[C@@H](N)CCC(=O)O)C(C)(C)[C@@H]4CC[C@]23C)O1
viability at 72 h, 10 µM / %: 106

structure-as-smiles: CC(C)(C)OC(=O)CC[C@H](NC(=O)OC(C)(C)C)C(=O)O[C@H]1CC[C@]2(C)[C@H]3C[C@@H](O)[C@@H]4[C@@H]([C@]5(C)CC[C@H](C(C)(C)O)O5)CC[C@@]4(C)[C@]3(C)CC[C@H]2C1(C)C
viability at 72 h, 10 µM / %: 82

structure-as-smiles: CC(C)(O)[C@H]1CC[C@@](C)([C@H]2CC[C@]3(C)[C@@H]2[C@H](O)C[C@@H]2[C@@]4(C)CC[C@H](OC(=O)[C@@H](N)Cc5ccccc5)C(C)(C)[C@@H]4CC[C@]23C)O1
viability at 72 h, 10 µM / %: 74

structure-as-smiles: CC(C)(O)[C@@H]1CC[C@@](C)([C@H]2CC[C@]3(C)[C@@H]2[C@H](O)C[C@@H]2[C@@]4(C)CC[C@H](OC(=O)[C@@H](N)CC(=O)O)C(C)(C)[C@@H]4CC[C@]23C)O1
viability at 72 h, 10 µM / %: 106

structure-as-smiles: CC(C)(O)[C@@H]1CC[C@@](C)([C@H]2CC[C@]3(C)[C@@H]2[C@H](O)C[C@@H]2[C@@]4(C)CC[C@H](OC(=O)[C@@H](N)CCC(=O)O)C(C)(C)[C@@H]4CC[C@]23C)O1
viability at 72 h, 10 µM / %: 112

structure-as-smiles: CC(C)(C)OC(=O)C[C@H](NC(=O)OC(C)(C)C)C(=O)O[C@H]1CC[C@]2(C)[C@H]3C[C@@H](O)[C@@H]4[C@@H]([C@]5(C)CC[C@H](C(C)(C)O)O5)CC[C@@]4(C)[C@]3(C)CC[C@H]2C1(C)C
viability at 72 h, 10 µM / %: 85

Memo: C[C@@H](OCc1ccccc1)[C@H](NC(=O)OC(C)(C)C)C(=O)O[C@H]1CC[C@]2(C)[C@H]3C[C@@H](O)[C@@H]4[C@@H]([C@]5(C)CC[C@H](C(C)(C)O)O5)CC[C@@]4(C)[C@]3(C)CC[C@H]2C1(C)C , reported viability at 72 h, 10 µM: 138

###

# assay-summary: Cytotoxicity against human KBV cells assessed as cell viability at 10 uM incubated for 72 hrs by MTT assay
# Format: cell-based
# test-conditions: read-out: Activity
For each entry below, report its viability at 72 h, 10 µM value.
Numbers only, in %.

Sample answers from the record:
structure-as-smiles: CC(C)(C)OC(=O)N[C@@H](Cc1ccccc1)C(=O)O[C@H]1CC[C@]2(C)[C@H]3C[C@@H](O)[C@@H]4[C@@H]([C@]5(C)CC[C@@H](C(C)(C)O)O5)CC[C@@]4(C)[C@]3(C)CC[C@H]2C1(C)C
scale-unit: %
viability at 72 h, 10 µM: 17
//
structure-as-smiles: CC(C)(O)[C@@H]1CC[C@@](C)([C@H]2CC[C@]3(C)[C@@H]2[C@H](O)C[C@@H]2[C@@]4(C)CC[C@H](OC(=O)[C@@H](N)Cc5c[nH]c6ccccc56)C(C)(C)[C@@H]4CC[C@]23C)O1
scale-unit: %
viability at 72 h, 10 µM: 52

Turning to the following compound.
Memo: CC(C)(C)OC(=O)N[C@@H](Cc1cn(C(=O)OC(C)(C)C)c2ccccc12)C(=O)O[C@H]1CC[C@]2(C)[C@H]3C[C@@H](O)[C@@H]4[C@@H]([C@]5(C)CC[C@H](C(C)(C)O)O5)CC[C@@]4(C)[C@]3(C)CC[C@H]2C1(C)C , reported viability at 72 h, 10 µM: 132
